- Test system: 817829-284-R-J1-PDC complex spheroids, viability
- test description: Anticancer human tumor 817829-284-R-J1-PDC patient-derived colon adenocarcinoma cell line growth inhibition [CLK]; active = viability on the fitted dose curve at most 10% of control; inactive = the rest
- condition info: second compound 3.16 µM; first compound 0.316 µM
Respond with a class label; see active, inactive

Some solved cases for reference:
compound="COC1C=CCC(C)C(C)S(=O)(=O)NC(=O)c2ccc3c(c2)N(CC2CCC21)CC1(CCCc2cc(Cl)ccc21)CO3 (stereo not given) + CNC(=O)c1ccc(Nc2nc(OC3CCCC3)c3c(-c4ccc5nc(C)oc5c4)c[nH]c3n2)c(OC)c1" category=inactive
compound="O=c1[nH]cc(F)c(=O)[nH]1 + CN1CCN(c2cc(C(=O)Nc3cc4cc(-c5cnn(C)c5)ccc4cn3)ccn2)CC1" category=active
compound="CCc1c2c(nc3ccc(O)cc13)-c1cc3c(c(=O)n1C2)COC(=O)[C@]3(O)CC + CN1CCN(c2cc(C(=O)Nc3cc4cc(-c5cnn(C)c5)ccc4cn3)ccn2)CC1" category=active
compound="O=C(c1cc(Cc2n[nH]c(=O)c3ccccc23)ccc1F)N1CCN(C(=O)C2CC2)CC1 + CN1CCN(c2cc(C(=O)Nc3cc4cc(-c5cnn(C)c5)ccc4cn3)ccn2)CC1" category=active

API: the following record is the query input.
Please indicate how the test categorized CCCS(=O)(=O)Nc1ccc(F)c(C(=O)c2c[nH]c3ncc(-c4ccc(Cl)cc4)cc23)c1F + CN1CCN(c2cc(C(=O)Nc3cc4cc(-c5cnn(C)c5)ccc4cn3)ccn2)CC1 . active

====

- Tested on: 817829-284-R-J1-PDC complex spheroids, viability
- test description: Anticancer human tumor 817829-284-R-J1-PDC cell line growth inhibition [CLK];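 also: spheroids exposed to the agents for seven days before readout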
- condition info: second compound 0.1 µM; first compound 3.16 µM; hits give low values
- From the text: A high-throughput screen of multi-cell type tumor spheroids was designed to identify active combinations of […] and targeted small molecules. Complex spheroids include a stromal component modeled by human endothelial cells (HUVEC) and fibroblasts modeled by human mesenchymal stem cells (MSCs). […] Compounds. […] If the clinical Cmax for an agent had not been determined, the highest concentration tested was 10 microM. […]
Reported viability, T/C is given for each of the following compounds.
Just the number in %, nothing appended.

compound="COc1ccc([C@@H](O)c2cc(-c3ncnc4cc(N5CCOCC5)ccc34)c(F)cc2Cl)nn1 + CN1CCN(c2cc(C(=O)Nc3cc4cc(-c5cnn(C)c5)ccc4cn3)ccn2)CC1" observed=11.8

Could you share what viability, T/C was measured for O=C(c1cc(Cc2n[nH]c(=O)c3ccccc23)ccc1F)N1CCN(C(=O)C2CC2)CC1 + CNC(=O)c1ccc(Nc2nc(OC3CCCC3)c3c(-c4ccc5nc(C)oc5c4)c[nH]c3n2)c(OC)c1 , tested on 817829-284-R-J1-PDC complex spheroids, viability? 24.2

Identify the measured viability, T/C of C=CC(=O)N1CCN(c2nc(=O)n(-c3c(C)ccnc3C(C)C)c3nc(-c4c(O)cccc4F)c(F)cc23)C(C)C1 (stereo not given) + CN1CCN(c2cc(C(=O)Nc3cc4cc(-c5cnn(C)c5)ccc4cn3)ccn2)CC1 for 817829-284-R-J1-PDC complex spheroids, viability. 16.1

State its viability, T/C on 817829-284-R-J1-PDC complex spheroids, viability: CC1COCCN1c1cc(C2(S(C)(=N)=O)CC2)nc(-c2ccnc3[nH]ccc23)n1 (stereo not given) + CN1CCN(c2cc(C(=O)Nc3cc4cc(-c5cnn(C)c5)ccc4cn3)ccn2)CC1 4.67

For 817829-284-R-J1-PDC complex spheroids, viability, provide viability, T/C of O=c1[nH]cc(F)c(=O)[nH]1 + CNC(=O)c1ccc(Nc2nc(OC3CCCC3)c3c(-c4ccc5nc(C)oc5c4)c[nH]c3n2)c(OC)c1 please. 18.5

====

- System: 817829-284-R-J1-PDC complex spheroids, viability
- test description: Anticancer human tumor 817829-284-R-J1-PDC cell line growth inhibition [CLK]; active = viability on the fitted dose curve at most 10% of control; inactive = the rest;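 also: spheroids exposed to the agents for seven days before readout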
- condition info: second compound 0.1 µM; first compound 0.0316 µM
- Description: A high-throughput screen of multi-cell type tumor spheroids was designed to identify active combinations of […] and targeted small molecules. Complex spheroids include a stromal component modeled by human endothelial cells (HUVEC) and fibroblasts modeled by human mesenchymal stem cells (MSCs). […] Compounds. […] If the clinical Cmax for an agent had not been determined, the highest concentration tested was 10 microM. […]
Give one outcome, nothing more. List: active, inactive

Solved entries:
compound="CC(CO)NC(=O)c1cc(-c2ccc(Cl)cc2)nn(-c2cnn(C)c2)c1=O (stereo not given) + CNC(=O)c1ccc(Nc2nc(OC3CCCC3)c3c(-c4ccc5nc(C)oc5c4)c[nH]c3n2)c(OC)c1" category=inactive
compound="CCc1c2c(nc3ccc(O)cc13)-c1cc3c(c(=O)n1C2)COC(=O)[C@]3(O)CC + CN1CCN(c2cc(C(=O)Nc3cc4cc(-c5cnn(C)c5)ccc4cn3)ccn2)CC1" category=active
compound="C=C(F)C(=O)N1CCN(c2nc(OCC3CCCN3C)nc3c2CCN(c2cccc4cccc(Cl)c24)C3)CC1CC#N (stereo not given) + CN1CCN(c2cc(C(=O)Nc3cc4cc(-c5cnn(C)c5)ccc4cn3)ccn2)CC1" category=inactive
compound="Nc1ccccc1NC(=O)c1ccc(CNC(=O)OCc2cccnc2)cc1 + CN1CCN(c2cc(C(=O)Nc3cc4cc(-c5cnn(C)c5)ccc4cn3)ccn2)CC1" category=inactive

Hello, I am checking results. What call was entered for Cn1ncnc1[C@H]1c2n[nH]c(=O)c3cc(F)cc(c23)N[C@@H]1c1ccc(F)cc1 + CNC(=O)c1ccc(Nc2nc(OC3CCCC3)c3c(-c4ccc5nc(C)oc5c4)c[nH]c3n2)c(OC)c1 ? inactive

====

- Tested on: 817829-284-R-J1-PDC complex spheroids, viability
- test description: Anticancer human tumor 817829-284-R-J1-PDC cell line growth inhibition [CLK]; active = viability on the fitted dose curve at most 10% of control; inactive = the rest;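 also: spheroids exposed to the agents for seven days before readout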
- condition info: second compound 10 µM; first compound 0.00316 µM
A correct response names exactly one class from yes (active), no (inactive)

Below are worked cases with known answers.
compound="Cn1ncnc1[C@H]1c2n[nH]c(=O)c3cc(F)cc(c23)N[C@@H]1c1ccc(F)cc1 + CNC(=O)c1ccc(Nc2nc(OC3CCCC3)c3c(-c4ccc5nc(C)oc5c4)c[nH]c3n2)c(OC)c1" category=no
compound="Cn1ncnc1[C@H]1c2n[nH]c(=O)c3cc(F)cc(c23)N[C@@H]1c1ccc(F)cc1 + CN1CCN(c2cc(C(=O)Nc3cc4cc(-c5cnn(C)c5)ccc4cn3)ccn2)CC1" category=yes
compound="CCc1c2c(nc3ccc(O)cc13)-c1cc3c(c(=O)n1C2)COC(=O)[C@]3(O)CC + CNC(=O)c1ccc(Nc2nc(OC3CCCC3)c3c(-c4ccc5nc(C)oc5c4)c[nH]c3n2)c(OC)c1" category=no
compound="CCc1c2c(nc3ccc(O)cc13)-c1cc3c(c(=O)n1C2)COC(=O)[C@]3(O)CC + CN1CCN(c2cc(C(=O)Nc3cc4cc(-c5cnn(C)c5)ccc4cn3)ccn2)CC1" category=yes
compound="COc1c(OCCCN2CCOCC2)ccc2c3n(c(=NC(=O)c4cnc(N)nc4)nc12)CCN3 + CN1CCN(c2cc(C(=O)Nc3cc4cc(-c5cnn(C)c5)ccc4cn3)ccn2)CC1" category=yes

State the result this test recorded for CCN1CCN(Cc2ccc(Nc3ncc(F)c(-c4cc(F)c5nc(C)n(C(C)C)c5c4)n3)nc2)CC1 + CN1CCN(c2cc(C(=O)Nc3cc4cc(-c5cnn(C)c5)ccc4cn3)ccn2)CC1 . yes

Please state the recorded outcome for this compound: COc1c(OCCCN2CCOCC2)ccc2c3n(c(=NC(=O)c4cnc(N)nc4)nc12)CCN3 + CNC(=O)c1ccc(Nc2nc(OC3CCCC3)c3c(-c4ccc5nc(C)oc5c4)c[nH]c3n2)c(OC)c1 no

====

- Test system: 817829-284-R-J1-PDC complex spheroids, viability
- test description: Anticancer human tumor 817829-284-R-J1-PDC cell line growth inhibition [CLK];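 also: spheroids exposed to the agents for seven days before readout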
- condition info: second compound 0.316 µM; first compound 0.1 µM; hits give low values
quantity: viability, T/C (%)
# output: bare number, implied unit %

Please review the entries below; each comes with its answer.
molecule="CC1COCCN1c1cc(C2(S(C)(=N)=O)CC2)nc(-c2ccnc3[nH]ccc23)n1 (centres undefined) + CN1CCN(c2cc(C(=O)Nc3cc4cc(-c5cnn(C)c5)ccc4cn3)ccn2)CC1" quantity="viability, T/C" observed=2.26
molecule="COC1C=CCC(C)C(C)S(=O)(=O)NC(=O)c2ccc3c(c2)N(CC2CCC21)CC1(CCCc2cc(Cl)ccc21)CO3 (centres undefined) + CN1CCN(c2cc(C(=O)Nc3cc4cc(-c5cnn(C)c5)ccc4cn3)ccn2)CC1" quantity="viability, T/C" observed=1.47
molecule="CC(=O)O[C@H]1C(=O)[C@@]2(C)[C@H]([C@H](OC(=O)c3ccccc3)[C@]3(O)C[C@H](OC(=O)[C@H](O)[C@@H](NC(=O)c4ccccc4)c4ccccc4)C(C)=C1C3(C)C)[C@]1(OC(C)=O)CO[C@@H]1C[C@@H]2O + CNC(=O)c1ccc(Nc2nc(OC3CCCC3)c3c(-c4ccc5nc(C)oc5c4)c[nH]c3n2)c(OC)c1" quantity="viability, T/C" observed=31.6

// moving on: another record for viability, T/C
Given the entry COc1c(OCCCN2CCOCC2)ccc2c3n(c(=NC(=O)c4cnc(N)nc4)nc12)CCN3 + CNC(=O)c1ccc(Nc2nc(OC3CCCC3)c3c(-c4ccc5nc(C)oc5c4)c[nH]c3n2)c(OC)c1 , report its measured viability, T/C. 9.72

The origin of these recorded values is PubChem BioAssay AID2060599.
